target: Cyclin-dependent kinase 2/cyclin E1 (Homo sapiens, UniProt P24941); test: Inhibition of human CDK2/cyclin E expressed in Sf9 insect cells using histone H1 as substrate in presence of [gamma-33P]ATP
pIC50: −log10 of the molar value.
measured.metric: pIC50

Cc1cccc(-c2nn3c(c2-c2ccc(O)cc2)CC(C)(C)C3)n1 | < 4.00
CC1(C)Cc2c(-c3ccncc3)c(-c3ccccc3C#N)nn2C1 | < 4.00

Read the next record carefully.
Query :: Look up pIC50 for this compound: CCc1cccc(-c2nn3c(c2-c2ccc(OC)cc2)C(C)C(C)(C)C3)n1 (stereo not drawn)
Result :: < 4.00
